The origin of these recorded values is PubChem BioAssay AID686979.

Test: qHTS for Inhibitors of human tyrosyl-DNA phosphodiesterase 1 (TDP1): qHTS in cells in presence of CPT; also: nearly all actives have a fitted effect of over 55% in size
Details: chicken DT40 Tdp1-/-;hTDP1 cells + 20 nM CPT, ATP luminescence, 48 h; series mostly up to 46.2 µM
Method: Human tyrosyl-DNA phosphodiesterase 1 (TDP1) is a novel repair gene, and we propose to use it as a new target for anticancer drug development. […] For the primary screen, Tdp1-/-;hTDP1 cells will be exposed to small molecules in the presence or absence of CPT, and their growth kinetics will be evaluated after 48 hours by measuring ATP activity. […] The hit compounds will then be evaluated in the presence or absence of CPT using Tdp1-/- cells. […]
The campaign covered roughly 420,000 compounds. About 50,000 (12%) were called active. Roughly 26% stayed inconclusive and do not appear here. Calls follow the shape of the dose curve; as a rule, active = well fitted inhibition curve with a large enough effect; inconclusive = small, poorly fitted or top-dose-only effect; inactive = flat fitted curve, though single readings scatter. The entries come from a sample that favours actives as a whole.
Field 'call' accepts active, inactive

Recorded results for 4 compounds are shown here.
{"columns": ["compound", "classification"],
 "data": [
  ["CCOc1ccc(S(=O)(=O)NCCC(=O)NCC(C)(C)N2CCOCC2)cc1", "inactive"],
  ["C[C@H]1CN([C@@H](C)CO)C(=O)CCCn2cc(nn2)CO[C@@H]1CN(C)S(=O)(=O)c1cccc(C#N)c1", "inactive"],
  ["COc1ccc(-c2nc(CN3CCC(C(=O)NCc4ccccc4)CC3)c(C)o2)cc1OC", "inactive"],
  ["Brc1c(CSc2nncc3ccccc23)nc2ccccn12", "inactive"]
]}

Tell me the assay call for COc1cccc(NC(=O)CN(C)C(C)C(=O)Nc2ccc(C#N)cc2)c1 (stereo not drawn) please. inactive

Tell me the assay call for CC(=O)Nc1ccc(NC(=O)C2CCCN2S(=O)(=O)c2cccc(C(F)(F)F)c2)cc1 (stereo not drawn) please. inactive

====

test: qHTS for Inhibitors of human tyrosyl-DNA phosphodiesterase 1 (TDP1): qHTS in cells in presence of CPT; conditions: chicken DT40 Tdp1-/-;hTDP1 cells + 20 nM CPT, ATP luminescence, 48 h; series mostly up to 46.2 µM; also: nearly all actives have a fitted effect of over 55% in size
Among all 420,000 compounds or so, about 50,000 (12%) were called active. Roughly 26% stayed inconclusive and do not appear here. Calls follow the shape of the dose curve; as a rule, active = well fitted inhibition curve with a large enough effect; inconclusive = small, poorly fitted or top-dose-only effect; inactive = flat fitted curve, though single readings scatter. The full list was thinned out, with actives kept by preference.
Field 'call' accepts active, inactive

Recorded results for 5 molecules are shown here.
{"columns": ["molecule", "classification"],
 "data": [
  ["O=C(COC(=O)c1ccccc1SCC(=O)NC1CCCCC1)NC1CCCCC1", "inactive"],
  ["Cc1cccc(-n2ncc(C(=O)N3CCC(C)CC3)c2C2CCN(C(=O)OC(C)(C)C)CC2)c1", "inactive"],
  ["CC(=O)c1c(C)n(S(=O)(=O)c2ccc(Cl)cc2)c2ccc(NS(=O)(=O)c3ccc(Cl)cc3)cc12", "active"],
  ["COc1ccc2oc(=O)cc(CN3CCOCC3)c2c1", "inactive"],
  ["CC(C)Sc1nnc([C@H](Cc2ccccc2)NC(=O)OC(C)(C)C)o1", "inactive"]
]}

Tell me the assay call for COc1ccc(C2(O)C(=O)Nc3ccccc32)cc1 (centres undefined) please. inactive

Tell me the assay call for CCN(CC)S(=O)(=O)c1ccc(Cl)c(C(=O)NCCN2CCOCC2)c1 please. inactive

====

test: qHTS for Inhibitors of human tyrosyl-DNA phosphodiesterase 1 (TDP1): qHTS in cells in presence of CPT; settings: chicken DT40 Tdp1-/-;hTDP1 cells + 20 nM CPT, ATP luminescence, 48 h; series mostly up to 46.2 µM; also: nearly all actives have a fitted effect of over 55% in size
About 50,000 (12%) of roughly 420,000 compounds were called active. Another 26% or so got no clear call; they are omitted. Calls come from the whole dose curve; as a rule, active = well fitted inhibition curve with a large enough effect; inconclusive = small, poorly fitted or top-dose-only effect; inactive = flat fitted curve, though single readings scatter. Many of the other results were omitted from the sample, so actives are more common in it than they were.
Field 'call' accepts YES for active, NO for inactive

Tell me the assay call for Cn1c(=O)c(=O)n(C)c2cc(NC(=O)c3ccccc3Br)ccc21 please. NO

Tell me the assay call for COC(=O)Cc1cnc(NC(=O)CSc2nc(C(C)C)cc(=O)[nH]2)s1 please. NO

Tell me the assay call for CCNC(=S)Nc1ccc(OC(F)(F)F)cc1 please. NO

Tell me the assay call for CC(C)(C)c1cc(C(=O)N/N=C/c2ccc([N+](=O)[O-])s2)n[nH]1 please. YES

Tell me the assay call for CC1=C(C/C=C(\C)CCCC(C)CCCC(C)CCCC(C)C)C(=O)c2ccccc2C1=O (stereo unspecified) please. NO

Tell me the assay call for COc1ccc(/C=N/NC(=O)CNC(=O)c2ccc(S(=O)(=O)N3CCCC3)cc2)c(OC)c1 please. NO

Tell me the assay call for CCc1ccc2c(c1)NC(=O)C2(C)Cc1ccc(OC(F)(F)F)cc1 (stereo unspecified) please. YES

Tell me the assay call for C/C(=N/NS(=O)(=O)c1ccccc1)c1ccc(NC(=O)C(F)(F)F)cc1 please. NO

Tell me the assay call for CCCCN(C)CCCNC(=O)CN1N=C(c2ccc(OC)cc2)CCC1=O please. NO

Tell me the assay call for CC(C)(C)c1ccc(C(=O)Nc2ccc3c(c2)CCCN3C(=O)c2cccs2)cc1 please. YES

Tell me the assay call for COC(=O)Cc1ccc(OCC(=O)Nc2ccc(OC(F)(F)F)cc2)cc1 please. NO

Tell me the assay call for CCOC(=O)[C@H]1[C@H]2COc3ccc(Br)cc3[C@@H]2N2C(=O)CN(C)C(=O)[C@@]12C please. NO

Tell me the assay call for C=C1C(=O)OC2C1CCC(C)=CCCC1(C)OC21 (stereo unspecified) please. YES

Tell me the assay call for COc1cc(/C=N\NC(=O)CNC(=O)c2cccc([N+](=O)[O-])c2)ccc1O please. NO

Tell me the assay call for Cc1c(NC(=S)NC(=O)CCc2ccccc2)c(=O)n(-c2ccccc2)n1C please. NO

Tell me the assay call for O=C(Cc1cc(=O)[nH][nH]1)N/N=C/c1ccccc1[N+](=O)[O-] please. NO
